- STUDY SYSTEM: human indolethylamine N-methyltransferase (hINMT) (Homo sapiens)
- Sequence (O95050 whole entry): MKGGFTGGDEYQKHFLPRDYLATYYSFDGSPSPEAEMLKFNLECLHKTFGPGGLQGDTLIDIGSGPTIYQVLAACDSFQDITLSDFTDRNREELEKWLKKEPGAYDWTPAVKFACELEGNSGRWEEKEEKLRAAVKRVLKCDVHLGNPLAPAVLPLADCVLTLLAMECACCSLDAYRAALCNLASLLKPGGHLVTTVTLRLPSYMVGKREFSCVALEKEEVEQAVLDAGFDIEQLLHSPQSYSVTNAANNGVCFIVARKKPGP
pIC50: −log10 of the molar value.

# STRUCTURE NOTATION, STUDY SYSTEM, pIC50
measured = [
    ("CNS(=O)(=O)CCc1ccc2[nH]cc(C3CCN(C)CC3)c2c1", "human indolethylamine N-methyltransferase (hINMT) (Homo sapiens)", 3.72),
]
